System: CP201
Measurement description: qHTS profiling for inhibitors of Plasmodium falciparum proliferation (AID 504749);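 further: 0% = DMSO vehicle and full inhibition = artemisinin control; nearly all actives have a fitted effect of over 60% in size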
Assay context: P. falciparum in erythrocytes, SYBR Green DNA, 72 h; series mostly up to 12.8 µM
Records with an inconclusive call do not appear. The source made the active and inactive calls. The call rests on the fitted dose curve; in most records, active means well fitted inhibition curve with a large enough effect; inconclusive means small, poorly fitted or top-dose-only effect; inactive means flat fitted curve, though single readings scatter.
Metric: outcome

compound=CC[C@H](Cc1c(I)cc(I)c(N)c1I)C(=O)O tgt=CP201 reported_result=inactive
compound=CC[C@H](CO)NCCN[C@@H](CC)CO tgt=CP201 reported_result=inactive
compound=CO[C@H]1[C@@H](OC(N)=O)[C@H](O)[C@@H](Oc2ccc3c(O)c(NC(=O)c4ccc(O)c(CC=C(C)C)c4)c(=O)oc3c2C)OC1(C)C tgt=CP201 reported_result=inactive
compound=CC(=O)OCC(=O)[C@@]12OC(C)(C)O[C@@H]1C[C@H]1[C@H]3C[C@H](F)C4=CC(=O)C=C[C@@]4(C)[C@]3(F)[C@H](O)C[C@@]12C tgt=CP201 reported_result=inactive
compound=CC[C@](C)(CN(C)C)OC(=O)c1ccccc1 tgt=CP201 reported_result=inactive
compound=O=C1O[C@@H]([C@@H](O)CO)[C@@H](O)[C@H]1O tgt=CP201 reported_result=inactive
compound=COCC(=O)Nc1c(I)c(C(=O)NC[C@@H](O)CO)c(I)c(C(=O)N(C)C[C@@H](O)CO)c1I tgt=CP201 reported_result=inactive
compound=Cc1ccsc1/C=C\C1=NCCCN1C tgt=CP201 reported_result=inactive
compound="CN(C)CCc1c[nH]c2ccc(CC3COC(=O)N3)cc12 (stereo not given)" tgt=CP201 reported_result=inactive
compound=C=CC1=C(C(=O)O)N2C(=O)[C@@H](NC(=O)/C(=N\OCC(=O)O)c3csc(N)n3)[C@@H]2SC1 tgt=CP201 reported_result=inactive

Q: Need outcome, item CO[C@]1(NC(=O)C2SC(=C(C(N)=O)C(=O)O)S2)C(=O)N2C(C(=O)O)=C(CSc3nnnn3C)CS[C@H]21 (stereo not given in full)
Ans: inactive

Q: Quick check: outcome of `CCN[C@@H]1CN(CCCOC)S(=O)(=O)c2sc(S(N)(=O)=O)cc21` ?
Ans: inactive

Q: Query: outcome; subject: `CCCC[C@H](CC)CN1CN(C[C@@H](CC)CCCC)CC(C)(N)C1`
Ans: inactive

Q: What value of outcome has been reported for the following compound? `CN1CC(=O)N=C1N`
Ans: inactive

Q: Which outcome reading was recorded for the compound CNC1CC(N)[C@H](O)[C@@H](O[C@@H]2OC(CO)C3OC4(OC(C(N)CO)C(O)C(O)C4O)O[C@@H]3[C@H]2O)C1O (stereo not given in full) ?
Ans: inactive

Q: Requested field: outcome. Item: Nc1nc2ncc(CNc3ccc(C(=O)NC(CCC(=O)O)C(=O)O)cc3)nc2c(=O)[nH]1 (stereo not given)
Ans: inactive

Q: Would you mind telling me what outcome value was observed for `CC(=O)OCC(=O)[C@@]1(O)[C@H](C)C[C@@H]2[C@H]3CCC4=CC(=O)C=C[C@]4(C)[C@]3(F)[C@@H](O)C[C@@]21C` ?
Ans: inactive

Q: # get_value(readout='outcome', item= CCC(CCC(C)C1CCC2C3CC=C4CC(O)CC[C@@]4(C)C3CC[C@@]12C)C(C)C (stereo not given in full) )
Ans: inactive

Q: Looking for the measured outcome of C[C@]12CCC(=O)C=C1CCC1C2C(=O)C[C@]2(C)C1CC[C@]2(O)C(=O)CO (stereo not given in full) , can you help?
Ans: inactive

Q: Fill in the blank: the reported outcome of `C[C@H](Oc1ccccc1)C(=O)N[C@@H]1C(=O)N2[C@@H]1SC(C)(C)[C@@H]2C(=O)O` is ____.
Ans: inactive

Q: Which outcome value is on record for `O=C(OC[C@@H](O)CO)c1ccccc1Nc1ccnc2cc(Cl)ccc12` ?
Ans: inactive

Q: Which value of outcome has been reported for C[C@@H]1O[C@H](O[C@@H]2\C=C/C=C\C=C/C=C\C[C@H](C)OC(=O)/C=C\[C@H]3O[C@@H]3C[C@H](O)C[C@]3(O)C[C@@H](O)[C@@H](C(=O)O)[C@H](C2)O3)[C@@H](O)[C@H](N)[C@@H]1O (stereo in doubt) in the records?
Ans: inactive

Q: Form field: reported outcome of `C[C@@]12CC[C@H]3[C@@H](CCC4=CC(=O)CC[C@]43C)[C@H]1CC[C@H]2C(=O)CO`
Ans: inactive

Q: Any idea what outcome was measured for `CC(C)(C)NC[C@H](O)COc1cccc2c1CCC(=O)N2` ?
Ans: inactive

Q: Consider the compound `CC(=O)[C@@]1(O)CC[C@H]2[C@H]3C[C@@H](C)C4=CC(=O)C=C[C@]4(C)[C@@]3(F)[C@@H](O)C[C@]21C` and give its measured outcome.
Ans: inactive

Q: Give the measured outcome of NC(CCC(=O)N[C@@H](CS)C(=O)NCC(=O)O)C(=O)O (stereo not given in full) .
Ans: inactive

---

Tgt: Rap guanine nucleotide exchange factor 3 (Homo sapiens) (UniProt O95398)
Sequence (O95398 whole entry, looked up): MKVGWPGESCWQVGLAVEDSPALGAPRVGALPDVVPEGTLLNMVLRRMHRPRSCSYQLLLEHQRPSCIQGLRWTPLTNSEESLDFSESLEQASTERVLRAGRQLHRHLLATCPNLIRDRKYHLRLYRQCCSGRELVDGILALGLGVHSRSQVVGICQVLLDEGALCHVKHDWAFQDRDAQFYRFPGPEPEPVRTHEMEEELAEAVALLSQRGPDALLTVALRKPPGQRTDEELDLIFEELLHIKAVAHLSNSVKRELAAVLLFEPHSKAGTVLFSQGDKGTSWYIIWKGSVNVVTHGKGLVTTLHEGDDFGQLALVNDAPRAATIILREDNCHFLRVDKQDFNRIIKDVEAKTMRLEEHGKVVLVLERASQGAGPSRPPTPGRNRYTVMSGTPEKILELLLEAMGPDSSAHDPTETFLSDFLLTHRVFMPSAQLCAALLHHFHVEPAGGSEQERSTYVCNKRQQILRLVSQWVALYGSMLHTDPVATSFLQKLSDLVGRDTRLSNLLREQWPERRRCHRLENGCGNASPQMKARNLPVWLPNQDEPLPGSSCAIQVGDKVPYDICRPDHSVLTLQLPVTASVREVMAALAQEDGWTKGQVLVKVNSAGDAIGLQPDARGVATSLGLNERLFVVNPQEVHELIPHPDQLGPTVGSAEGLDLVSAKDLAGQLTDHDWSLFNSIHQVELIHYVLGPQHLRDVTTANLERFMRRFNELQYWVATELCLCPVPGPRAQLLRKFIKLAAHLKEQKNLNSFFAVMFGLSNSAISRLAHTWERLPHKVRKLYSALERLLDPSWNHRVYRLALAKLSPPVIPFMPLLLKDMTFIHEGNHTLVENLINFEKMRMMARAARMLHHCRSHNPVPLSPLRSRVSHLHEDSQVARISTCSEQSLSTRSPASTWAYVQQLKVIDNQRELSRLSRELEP
Measurement description: Confirmatory qHTS for antagonist of cAMP-regulated guanine nucleotide exchange factor 3 (EPAC1) (AID 1645880); further: nearly all actives have a fitted effect of over 55% in size; further: potency means the concentration at half of the fitted maximal effect
Assay context: EPAC1 Rap1B-BODIPY-GDP exchange, fluorescence; series mostly up to 115 µM
Records with an inconclusive call do not appear. The source made the active and inactive calls. Calls come from the whole dose curve; as a rule, active = well fitted inhibition curve with a large enough effect; inconclusive = small, poorly fitted or top-dose-only effect; inactive = no such curve, though single readings can be large or run the other way.
Metric: Potency

Some solved entries appear below for comparison.
compound=O=c1oc(-c2ccccc2NS(=O)(=O)c2ccccc2)nc2ccccc12 reported_result=inactive
compound=Cc1ccc(CNC(=O)COc2ccccc2-c2ccccc2)cc1 reported_result=inactive
compound="COC(=O)C(Cc1ccc(O)cc1)NC(=O)CCc1nc2ccccc2s1 (configuration not stated)" reported_result=inactive
compound=O=C(CCSc1nc2ccccc2o1)N1CCOCC1 reported_result=inactive

Q: Entry CC(Sc1ccc(Cl)cc1)C(=O)NNC(=O)c1csc(N2CCOCC2)n1 (configuration not stated) : reported Potency = ?
Ans: inactive

Q: Would you mind telling me what Potency value was observed for `C(=N\N1CCN(C(c2ccccc2)c2ccccc2)CC1)/c1ccc2c(c1)OCO2` ?
Ans: inactive

Q: Given the entry Cc1ccc2nc(-c3ccccc3)cc(C(=O)N3CC(C)OC(C)C3)c2c1 (configuration not stated) , report its measured Potency.
Ans: inactive

Q: Requested field: Potency. Item: `O=C(N/N=C/c1cc(Br)c(O)c(Br)c1)c1cc2c(ccc3ccccc32)o1`
Ans: 39.8 µM (active)

Q: Give the measured Potency of `COC(=O)c1ccc2nc(-c3ccccc3)c(Cc3ccc(C)cc3)n2c1` .
Ans: inactive

---

Tgt: Rap guanine nucleotide exchange factor 3 (Homo sapiens)
Measurement description: Counterscreen qHTS for antagonist of cAMP-regulated guanine nucleotide exchange factor 3 (EPAC1) (AID 1645888);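 further: fluorescence loss as bound BODIPY-GDP is released from Rap1B; % of control where 0% means no effect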
Assay context: Rap1B-BODIPY-GDP nucleotide exchange, fluorescence; series mostly up to 154 µM
Inconclusive results are not listed. Activity calls are given as the source filed them. Calls come from the whole dose curve; as a rule, active = well fitted inhibition curve with a large enough effect; inconclusive = small, poorly fitted or top-dose-only effect; inactive = no such curve, though single readings can be large or run the other way.
Metric: activity change, negative = inhibition

Some compounds with known activity change, negative = inhibition results, for comparison:
compound="COc1cccc(C2=NN(C(=O)c3ccco3)C(O)(C(F)(F)F)C2)c1 (stereo unspecified)" metric="activity change, negative = inhibition" reported_result="-10.8% [at 30.8 µM] (inactive)"
compound=NNc1nc2c(Cl)cccc2s1 metric="activity change, negative = inhibition" reported_result=inactive
compound=CCCCCN(C(=O)CCC(=O)OCc1ccc(C(C)C)cc1)c1c(N)n(CCCC)c(=O)[nH]c1=O metric="activity change, negative = inhibition" reported_result=inactive
compound="CC(NCc1cccn1C)c1ccccc1 (stereo unspecified)" metric="activity change, negative = inhibition" reported_result=inactive
compound=CCCn1c(N)c(C(=O)CSc2n[nH]c(-c3ccc(C)cc3)n2)c(=O)[nH]c1=O metric="activity change, negative = inhibition" reported_result=inactive

Continue with the next compound.
Q: What activity change, negative = inhibition appears in the records for this compound with Rap guanine nucleotide exchange factor 3 (Homo sapiens)? `Nc1nnc(-c2cccc(F)c2)s1`
Ans: inactive

---

Tested on: DIV17
Measurement description: qHTS profiling for inhibitors of Plasmodium falciparum proliferation (AID 504749);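 further: 0% = DMSO vehicle and full inhibition = artemisinin control; nearly all actives have a fitted effect of over 60% in size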
Assay context: P. falciparum in erythrocytes, SYBR Green DNA, 72 h; series mostly up to 12.8 µM
Protocol: NIH National Institute of Allergy and Infectious Diseases [NIAID] NIH Chemical Genomics Center [NCGC] […] Because mature erythrocytes lack DNA, only Plasmodium-derived DNA is detected. NCGC Assay Protocol Summary: The SYBR Green viability assay was adapted from a method described previously (Plouffe et al., 2008). […] The following morning, fluorescence intensity at 485(14) nm excitation and 535(25) nm emission wavelengths was measured on an EnVision (Perkin Elmer) plate reader. […]
Inconclusive results are not listed. Activity calls are given as the source filed them. Calls come from the whole dose curve; as a rule, active = well fitted inhibition curve with a large enough effect; inconclusive = small, poorly fitted or top-dose-only effect; inactive = flat fitted curve, though single readings scatter.
Metric: Potency

Recorded results for 4 molecules are shown here.
molecule=CC(=O)O[C@]1(C(C)=O)CC[C@@H]2[C@@H]3C=C(C)C4=CC(=O)CC[C@@]4(C)[C@H]3CC[C@]21C reported_result=inactive
molecule="CCC(C)C(=O)OC1CC(O)C=C2C=CC(C)C(CCC(O)CC(O)CC(=O)O)C21 (configuration not stated)" reported_result=inactive
molecule=C#C[C@]1(O)CC[C@@H]2[C@H]3CCC4=CCCC[C@@H]4[C@@H]3CC[C@@]21C reported_result=inactive
molecule="CC1(C)SC2C(N3C(=O)C(c4ccccc4)NC3(C)C)C(=O)N2C1C(=O)O (configuration not stated)" reported_result=inactive

Please look at the following molecule next.
Q: Given `CC[C@H](Cc1c(I)cc(I)c(N)c1I)C(=O)O` , state its recorded Potency.
Ans: inactive

src = PubChem BioAssay (NCATS)
